experiment: Terminal half life in rat; format: ADME, organism-based; conditions: in vivo, read-out: beta t1/2 (converted)
attribute.measured: half-life
Dear colleague, please send the value followed by its unit.

Request: Which measured half-life value corresponds to NC(=O)c1cccc2cn(-c3ccccc3)nc12 ?
Result: 5.1 h

====

molecular target: PARP 1, 2 and 3 (Homo sapiens, UniProt P09874+Q9Y6F1+Q9UGN5); test: Inhibition of PARP in hydrogen peroxide-induced human HeLa cells assessed as inhibition DNA-damage-induced PARylation; format: cell-based
// reported log10 EC50 per item
Answers are given as log10 of EC50 in nM.

Here are 3 compounds together with their reported answers.
| compound | log10 EC50 |
| --- | --- |
| NC(=O)c1cccc2cn(-c3ccc(CN4CCOCC4)cc3)nc12 | 3.08 |
| CN(C)CCN(C)Cc1ccc(-n2cc3cccc(C(N)=O)c3n2)cc1 | 2.23 |
| CN(C)Cc1ccc(-n2cc3cccc(C(N)=O)c3n2)cc1 | 2.04 |

Request: Entry NC(=O)c1cccc2cn(-c3ccc4c(c3)CNCC4)nc12 : reported log10 EC50 = ?
Result: 1.66

Request: Next compound up: NC(=O)c1cccc2cn(-c3ccc(C4CCCN4)cc3)nc12 (stereo unspecified)
Result: 1.49

Request: Same question for NC(=O)c1cccc2cn(-c3ccc(CN4CCCCC4)cc3)nc12 please.
Result: 2.26

Request: NC(=O)c1cccc2cn(-c3ccc(CN4CCCC4)cc3)nc12
Result: 1.97

Request: Next up: NC(=O)c1cccc2cn(-c3ccc4c(c3)CCNC4)nc12
Result: 1.11

Request: Query NC(=O)c1cccc2cn(-c3ccc(CNCC(F)F)cc3)nc12 next
Result: 3.53

====

Measured microsomal CLint by item
target: CYP1A2 (Rattus norvegicus); test: Intrinsic clearance in rat liver microsomes assessed per mg of protein up to 60 mins in presence of rat recombinant CYP1A2; type: ADME, Microsome; conditions: rat liver microsomes with rat recombinant CYP1A2
Sequence (P04799 whole entry): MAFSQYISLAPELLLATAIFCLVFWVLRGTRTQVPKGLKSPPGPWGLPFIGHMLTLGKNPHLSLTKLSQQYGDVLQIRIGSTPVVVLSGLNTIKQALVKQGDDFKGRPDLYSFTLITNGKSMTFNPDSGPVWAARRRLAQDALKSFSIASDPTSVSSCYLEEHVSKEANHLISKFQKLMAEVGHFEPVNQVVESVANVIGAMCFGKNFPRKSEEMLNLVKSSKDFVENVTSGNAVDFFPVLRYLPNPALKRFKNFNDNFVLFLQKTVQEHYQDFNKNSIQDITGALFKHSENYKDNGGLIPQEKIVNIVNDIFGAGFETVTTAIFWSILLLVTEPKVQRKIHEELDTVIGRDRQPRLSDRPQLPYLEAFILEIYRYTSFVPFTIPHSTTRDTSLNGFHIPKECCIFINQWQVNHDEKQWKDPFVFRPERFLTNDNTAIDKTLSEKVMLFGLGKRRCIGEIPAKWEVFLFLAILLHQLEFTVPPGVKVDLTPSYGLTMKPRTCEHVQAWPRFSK
State the answer as a number, implicitly in µL/min/mg.

Illustrative cases are given below, each with its answer.
| compound | study.system | microsomal CLint / µL/min/mg |
| --- | --- | --- |
| CNC(C)c1ccc(-n2cc3cccc(C(N)=O)c3n2)cc1 (stereo unspecified) | CYP1A2 (Rattus norvegicus) | 2.2 |
| CC(C)NCc1ccc(-n2cc3cccc(C(N)=O)c3n2)cc1 | CYP1A2 (Rattus norvegicus) | 0.8 |
| NC(=O)c1cccc2cn(-c3ccc4c(c3)CNCC4)nc12 | CYP1A2 (Rattus norvegicus) | 0.7 |

Next item in the queue.
Request: Quick one: microsomal CLint of CNCc1cccc(-n2cc3cccc(C(N)=O)c3n2)c1 ?
Result: 5.4

====

test system: HeLa; test: Antiproliferative activity against BRCA1 deficient human HeLa cells after 7 days by cell titer-blue assay; format: functional; conditions: 168 h
attribute.measured: CC50 (nM)
Give the value in nM but do not write nM after it.

# annotated cases, reported CC50 shown
| compound | measurement.units | CC50 |
| --- | --- | --- |
| CN(C)CCN(C)Cc1ccc(-n2cc3cccc(C(N)=O)c3n2)cc1 | nM | 3900 |
| CNCc1ccc(-n2cc3cccc(C(N)=O)c3n2)cc1 | nM | 460 |
| NC(=O)c1cccc2cn(-c3ccc4c(c3)CCNC4)nc12 | nM | 270 |
| CNC(C)c1ccc(-n2cc3cccc(C(N)=O)c3n2)cc1 (stereo unspecified) | nM | 3100 |
| NC(=O)c1cccc2cn(-c3ccc([C@@H]4CCCNC4)cc3)nc12 | nM | 33 |

Shifting focus to the compound that follows.
Request: Give its CC50 value. Item: CNC(C)(C)c1ccc(-n2cc3cccc(C(N)=O)c3n2)cc1
Result: 920

The reported numbers originate from ChEMBL document CHEMBL1157008.
